Give measured pKi for each item. Keep answers brief.
molecular target: Human PDE9 (PDE9A2) (Homo sapiens (Human)); experiment: PDE9 IMAP fluorescence polarization assay; type: biochemical; conditions: human PDE9A2, FAM-cGMP substrate 50 nM, IMAP FP, apparent inhibition constant
One number for each entry, as −log10 of the molar value.

Before answering, review these 2 worked examples.
Return the recorded pKi value; entry: CC(c1ccc(C(F)(F)F)nc1)n1nc(C#N)c2c(=O)[nH]c(C3CCC3n3ccc(C#N)n3)nc21 (single isomer, unassigned) [Example 28]
7.51

Given CC(c1ccc(C(F)(F)F)nc1)n1nc(C#N)c2c(=O)[nH]c(C3CCC3n3cc(C#N)cn3)nc21 (single isomer, unassigned) [Example 25] , respond with its pKi.
9.46

---
Specify measured pKi for C[C@@H](c1ccc(C(F)(F)F)nc1)n1nc(C#N)c2c(=O)[nH]c(C3CCC3c3ncccc3F)nc21 (single isomer, unassigned) [Example 16] .
9.34

* * *

molecular target: Human PDE9 (PDE9A2) (Homo sapiens (Human), UniProt O76083)
pKi: −log10 of the molar value.
Think of 7 as a floor: if pKi stands on it or above, it is t; beneath it, f.

Reference set, count: 8
Given the entry C[C@@H](c1ccc(C(F)(F)F)nc1)n1nc(C#N)c2c(=O)[nH]c(C3CCC3n3cc(C(F)(F)F)cn3)nc21 (some centres unmarked) [Example 31] , answer whether its pKi meets or surpasses 7.
t

# check: pKi of C[C@@H](c1ccc(C(F)(F)F)nc1)n1nc(C#N)c2c(=O)[nH]c(C3CCC3c3ccc(F)cn3)nc21 (single isomer, unassigned) [Example 14] is greater than or equal to 7
t

Answer whether pKi of C[C@@H](c1ccc(C(F)(F)F)nc1)n1nc(C#N)c2c(=O)[nH]c(C3CCC3n3ccc(C(F)(F)F)n3)nc21 (some centres unmarked) is greater than or equal to 7.
f

Textbook exercise: given the entry C[C@@H](c1ccc(C(F)(F)F)nc1)n1nc(C#N)c2c(=O)[nH]c(C3CCC3c3cncnc3)nc21 (single isomer, unassigned) [Example 20] , state whether its pKi is greater than or equal to 7.
t

Does the reported pKi for C[C@@H](c1ccc(C(F)(F)F)nc1)n1nc(C#N)c2c(=O)[nH]c(C3CCC3c3cncnc3)nc21 (some centres unmarked) [Example 23] fall at or above the 7 mark?
f

// inclusive: pKi at least 7? input: C[C@@H](c1ccc(C(F)(F)F)nc1)n1nc(C#N)c2c(=O)[nH]c(C3CCC3n3cc(C4CC4)cn3)nc21 (single isomer, unassigned) [Example 39]
t

# bool: pKi of C[C@@H](c1ccc(C(F)(F)F)nc1)n1nc(C#N)c2c(=O)[nH]c(C3CCC3c3ncccc3F)nc21 (single isomer, unassigned) [Example 15] >= 7
t

pKi >= 7 for C[C@@H](c1ccc(C(F)(F)F)nc1)n1nc(C#N)c2c(=O)[nH]c(C3CCC3n3cc(C4CC4)cn3)nc21 (single isomer, unassigned) [Example 38] ?
t

More entries:
Could you verify whether the entry Cc1nnc(C2CCC2c2nc3c(c(C#N)nn3C(C)c3ccc(C(F)(F)F)nc3)c(=O)[nH]2)o1 (single isomer, unassigned) [Example 1] shows pKi of no less than 7?
t

Hi team, for C[C@@H](c1ccc(C(F)(F)F)nc1)n1nc(C#N)c2c(=O)[nH]c(C3CCC3n3cc(F)cn3)nc21 (single isomer, unassigned) [Example 35] , is the recorded pKi at or above 7?
t

Given C[C@@H](c1ccc(C(F)(F)F)nc1)n1nc(C#N)c2c(=O)[nH]c(C3CCC3c3ccn(C)n3)nc21 (single isomer, unassigned) [Example 17] , state whether its pKi is at least 7.
t

Quick check, pKi >= 7? C[C@@H](c1ccc(C(F)(F)F)nc1)n1nc(C#N)c2c(=O)[nH]c(C3CCC3c3ccn(C)n3)nc21 (single isomer, unassigned) [Example 18]
t

Decide: is the reported value of pKi for C[C@@H](c1ccc(C(F)(F)F)nc1)n1nc(C#N)c2c(=O)[nH]c(C3CCC3c3cc4n(n3)CCC4)nc21 (some centres unmarked) equal to or greater than 7?
f

Is pKi for Cc1nnc(C2CCC2c2nc3c(c(C#N)nn3C(C)c3ccc(C(F)(F)F)nc3)c(=O)[nH]2)o1 (single isomer, unassigned) [Example 6] at or above 7?
t

Form field: pKi at least 7? Entry: CC(C1CCOCC1)n1nc(C#N)c2c(=O)[nH]c(C3CCC3n3cc(C#N)cn3)nc21 (centres unmarked) [Example 41]
f

Has CC(c1ccc(C(F)(F)F)nc1)n1nc(C#N)c2c(=O)[nH]c(C3CCC3n3cc(C#N)cn3)nc21 (single isomer, unassigned) [Example 24] a recorded pKi greater than or equal to 7?
t

Test whether the compound CC(c1ccc(C(F)(F)F)nc1)n1nc(C#N)c2c(=O)[nH]c(C3CCC3n3ccc(C#N)n3)nc21 (single isomer, unassigned) [Example 29] records pKi of 7 or higher.
t

Item CC(c1ccc(C(F)(F)F)nc1)n1nc(C#N)c2c(=O)[nH]c(C3CCC3n3ccc(C#N)n3)nc21 (single isomer, unassigned) [Example 27] with pKi of 7 or above?
t

Evaluate CC(c1ccc(C(F)(F)F)nc1)n1nc(C#N)c2c(=O)[nH]c(C3CCC3N3CCOCC3=O)nc21 (centres unmarked) : pKi at minimum 7?
f

Does the compound C[C@@H](c1ccc(C(F)(F)F)nc1)n1nc(C#N)c2c(=O)[nH]c(C3CCC3c3cncnc3)nc21 (some centres unmarked) [Example 22] have recorded pKi that is 7 or more?
f

Reported pKi reaches at least 7 for Cc1nnc(C2CCC2c2nc3c(c(C#N)nn3C(C)c3ccc(C(F)(F)F)nc3)c(=O)[nH]2)o1 (single isomer, unassigned) [Example 3] ?
f

I'd appreciate it if you could say whether C[C@@H](c1ccc(C(F)(F)F)nc1)n1nc(C#N)c2c(=O)[nH]c(C3CCC3c3ccccn3)nc21 (single isomer, unassigned) [Example 8] has pKi at least equal to 7.
t

Tell me whether pKi is at least 7 here: Cc1nnc(C2CCC2c2nc3c(c(C#N)nn3C(C)c3ccc(C(F)(F)F)nc3)c(=O)[nH]2)o1 (single isomer, unassigned) [Example 5]
t
